All values here come from patent US20200055041A1.

tested on: hPSC-CM monolayers; assay: MEA conduction velocity (TCV, LCV) across hPSC-CM monolayers on flat and nanotopographically-patterned MEAs; format: cell-based, human; conditions: Homo sapiens, nanotopographically-patterned hPSC-CM monolayers, longitudinal conduction velocity; read-out: IC50 from LCV data
QUANTITY: pIC50
Friendly reminder that pIC50 comes from taking -log10 of the concentration in mol/L.

Report value: pIC50, system: hPSC-CM monolayers, compound: CC1(C)[C@@H](OC(=O)CCC(=O)O)CC[C@]2(C)[C@H]3C(=O)C=C4[C@@H]5C[C@@](C)(C(=O)O)CC[C@]5(C)CC[C@@]4(C)[C@]3(C)CC[C@@H]12 [carbenoxolone]
7.83
